Assay: Pharmacokinetic study in rats (iv and oral)
Format: in vivo, male SD rats
Conditions: SD, rat, plasma, 5 mg/kg; male rats, iv, 5 mpk
result-type: AUC(0-inf) (ng·h/mL)
Numbers only, in ng·h/mL.

Fill in: AUC(0-inf) of Cc1ccn(-c2cc(Cl)ccc2[C@@H](Oc2ncnc3c(-c4ccc(C[C@H](N)C(=O)O)cc4)csc23)C(F)(F)F)n1.Cl [Compound 18i] is ___
1220

====

Assay: Pharmacokinetic study in rats (iv and oral)
Type: in vivo, male SD rats
Settings: SD, rat, plasma, 5 mg/kg; male rats, iv, 5 mpk; read-out: Vss
Procedure: The pharmacokinetic study of 18i was performed using eight-week-old male SD rats (Orient Bio Inc., Seongnam, Korea). 18i and its prodrug 21 (5 mg/kg, 2 mL/kg) were administered via intravenous and oral routes. […] The plasma concentrations of 18i were determined by LC-MS/MS. The plasma concentration-time profiles and pharmacokientic parameters were analyzed by a non-compartmental method using the nonlinear least-squares regression program WinNonlin 5.3 (Pharsight, Mountain View, CA, USA). […]
result-type: Vd (L/kg)
Give bare numbers, in L/kg.

Find the recorded Vd belonging to Cc1ccn(-c2cc(Cl)ccc2[C@@H](Oc2ncnc3c(-c4ccc(C[C@H](N)C(=O)O)cc4)csc23)C(F)(F)F)n1.Cl [Compound 18i] and report it.
2.16
